- Assay Text: chemical genetic growth profiling, strain panel (AID 1159580);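 further: tested at 20 µM; growth read once vehicle control cultures reached saturation at 30 °C; 1 = growth at the plate median or of vehicle wells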
- Experimental Context: S. cerevisiae deletion strains, growth OD, locus YJL154C, strain vps35
Among all 5,500 compounds or so, about 2,000 (36%) were called active. Not shown: some 18% with an inconclusive outcome. No stated cut-off is given here; in the data, active means normalized growth mostly below about 0.91 (no sharp cut-off); inconclusive means no clear call, values can overlap the other calls; inactive means mostly above about 0.92. The list shows a part of the results.
Could you please pick one outcome from this set? true = active, false = inactive

C[C@@H]1CC[C@H]2[C@@H](C)C(=O)O[C@@H]3O[C@@]4(C)CC[C@@H]1[C@]32OO4
false
CC1(C)CC[C@]2(C)CC[C@]3(C)C(=CCC4[C@@]5(C)CC[C@H](O)C(C)(C)C5CC[C@]43C)C2C1 (stereo partly drawn)
false
CC(C)(Sc1cc(C(C)(C)C)c(O)c(C(C)(C)C)c1)Sc1cc(C(C)(C)C)c(O)c(C(C)(C)C)c1
false

Status in this test for "Nc1c2ccccc2nc2ccccc12" ?
false

What was the test verdict on CCC(C)C(NC)C(=O)O (stereo not drawn) ?
false

I'd appreciate the recorded outcome for CC(=O)NC(C(=O)O)C(C)(C)SN=O (stereo not drawn) from this test.
false

Which outcome was entered for the molecule COc1cccc2c1C(=O)c1c(O)c3c(c(O)c1C2=O)C[C@@](O)(C(=O)CO)C[C@@H]3OC1C[C@H](N)[C@H](O)[C@H](C)O1 (stereo partly drawn) in this test?
true

// outcome(item) with item = "COc1ccc2c3c([nH]c2c1)C(C)=NCC3"
false

Which outcome did this test record for the molecule "CCCCCCCCCCCC[C@H](C(=O)O)[C@@H](C)C(=O)O" ?
false

Check the results log: what was the call for "O=c1oc2cc(O)ccc2s1" ?
false

Kindly provide the recorded test outcome for the following molecule: "COc1cc(C(=O)NCCCCCC(=O)O)cc(OC)c1OC"
false

Please indicate how the test categorized "CCCOc1ccccc1-c1nc2n[nH]nc2c(=O)[nH]1" .
false

What call does the record list for "O=c1ccc2ccc(O)cc2o1" ?
false

For this molecule, state the assay outcome: "CCOc1ccc2nc3cc(N)ccc3c(N)c2c1"
false

Field: outcome | Entry: "Cc1ccc(N=CN(C)C=Nc2ccc(C)cc2C)c(C)c1"
false

Which outcome was assigned to "C[C@@H]1C(=O)O[C@H]2[C@H]1CC[C@@]1(C)C=CC(=O)[C@@]3(C)O[C@@]213" in this test?
false

====

- Assay Text: chemical genetic growth profiling, strain panel (AID 1159580)
- Experimental Context: S. cerevisiae deletion strains, growth OD, locus YGL078C, strain dbp3, stronger effect = lower value
The whole screen tested about 5,500 compounds, of which about 2,000 (36%) were called active. Not shown: some 18% with an inconclusive outcome. The list shows a part of the results.
Experimental Endpoint: normalized growth

Nc1ccc(S(=O)(=O)c2ccc(N)cc2)cc1
0.993 (inactive)
CC(=O)O[C@@H]1CC[C@@]2(C)C(CC[C@]3(C)C2CC=C2C4CC(C)(C)CC[C@]4(C(=O)O)CC[C@]23C)C1(C)C (stereo not given in full)
0.977 (inactive)
Cc1cn([C@H]2C[C@H](N=[N+]=[N-])[C@@H](CO)O2)c(=O)[nH]c1=O
1.01 (inactive)
C[C@]12CCC(=O)C=C1CCC1C2[C@@H](O)C[C@@]2(C)C1CC[C@]2(O)C(=O)CO (stereo not given in full)
0.984 (inactive)

Now examine the next entry.
Fill in normalized growth for record CC(=O)OC1CC(OC(C)=O)C2(C)C(CC(OC(C)=O)C3(C)C4=CC(=O)OC(=O)C4(C)CCC32)C1(C)C (stereo not given)
1.03 (inactive)

====

- Assay Text: chemical genetic growth profiling, strain panel (AID 1159580)
- Experimental Context: S. cerevisiae deletion strains, growth OD, locus YLR371W, strain rom2, stronger effect = lower value
The whole screen tested about 5,500 compounds, of which about 2,000 (36%) were called active. Inconclusive results (about 18%) are left out. This is one part of the list.
This section presents molecules with their documented normalized growth values.
Keep the answer to the number alone.

CO[C@@]12[C@@H]3NC3CN1C1=C(C(=O)C(N)=C(C)C1=O)[C@@H]2COC(N)=O (some centres undefined)
0.961
C[C@@H]1OC(O[C@H]2[C@H](O)[C@@H](O)[C@H](OC[C@H]3O[C@@H](OC(=O)[C@]45CCC(C)(C)CC4C4=CCC6[C@@]7(C)CC[C@H](OC8OC[C@H](O)[C@H](O)[C@H]8OC8O[C@@H](C)[C@H](O)[C@@H](O)[C@H]8O)[C@@](C)(CO)C7CC[C@@]6(C)[C@]4(C)CC5)[C@H](O)[C@@H](O)[C@@H]3O)O[C@@H]2CO)[C@H](O)[C@H](O)[C@H]1O (some centres undefined)
0.986
Cc1cc(O)ccc1Cl
1

Let's switch to this molecule now.
Output normalized growth of "Nc1ccc(S(=O)(=O)Nc2cnc3ccccc3n2)cc1"
0.984

====

We begin with a simple list: items and their reported normalized growth.
- Assay Text: chemical genetic growth profiling, strain panel (AID 1159580)
- Experimental Context: S. cerevisiae deletion strains, growth OD, locus YNL322C, strain KRE1, stronger effect = lower value
Among all 5,500 compounds or so, about 2,000 (36%) were called active. About 18% were inconclusive and are not listed. Some of the results follow.
Please state the value as a number alone, without comment.

Some compounds with recorded normalized growth:
COc1cc(-c2ccc(=O)[nH]n2)ccc1OC(F)F
0.997
Nc1c2ccccc2nc2ccccc12
0.698
CCOP(=S)(OCC)Oc1nc(Cl)c(Cl)cc1Cl
0.998
NC(Cc1c[nH]c2ccccc12)C(=O)O (stereo unspecified)
0.989
NC(N)=N/N=C/c1c(Cl)cccc1Cl
1
CCc1cc2c(cc1C(=O)CC1(O)C(=O)Nc3ccc(Br)cc31)C(C)(C)CCC2(C)C (stereo unspecified)
1.01
Oc1ccc2c3c1O[C@H]1[C@@H](O)CC[C@@]4(O)C(C2)N(CC2CCC2)CCC314 (stereo partly specified)
1.01
COc1ccc(NC(=O)C(C)c2ccc(CC(C)C)cc2)cc1 (stereo unspecified)
0.967
CS/C(N)=N\N=C/c1c(F)cccc1Cl
1
NCc1cc(=O)[nH]o1
1.01

Turning to the following compound.
Please indicate normalized growth recorded for C[C@@H]1CC[C@]2(C(=O)O)CC[C@]3(C)C(=CCC4[C@@]5(C)CC[C@H](O)C(C)(C)C5CC[C@]43C)C2[C@H]1C (stereo partly specified)
1.03

====

- Assay Text: chemical genetic growth profiling, strain panel (AID 1159580);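 further: tested at 20 µM; growth read once vehicle control cultures reached saturation at 30 °C; 1 = growth at the plate median or of vehicle wells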
- Experimental Context: S. cerevisiae deletion strains, growth OD, locus YOR001W, strain rrp6, stronger effect = lower value
Screen size: about 5,500 compounds; about 2,000 (36%) were called active. About 18% were inconclusive and are not listed. This is one part of the list.
Could you please mark t for values of normalized growth below 1 and f for values at or above it?

Bench note: check whether "Cc1ccc(-c2cc(C(F)(F)F)nn2-c2ccc(S(N)(=O)=O)cc2)cc1" shows normalized growth below 1
f

====

- Assay Text: chemical genetic growth profiling, strain panel (AID 1159580);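 further: tested at 20 µM; growth read once vehicle control cultures reached saturation at 30 °C; 1 = growth at the plate median or of vehicle wells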
- Experimental Context: S. cerevisiae deletion strains, growth OD, locus YLR342W, strain FKS1, stronger effect = lower value
Out of some 5,500 compounds screened, about 2,000 (36%) were called active. About 18% were inconclusive and are not listed. The list shows a part of the results.
Experimental Endpoint: normalized growth
// print number alone

C[C@@H]1CC[C@]2(C(=O)O)CC[C@]3(C)C(=CCC4[C@@]5(C)CC[C@H](O)C(C)(C)C5CC[C@]43C)C2[C@H]1C (stereo partly specified)
1
C#C[C@]1(O)CCC2C3CCC4=CC(=O)CC[C@@H]4C3CC[C@@]21C (stereo partly specified)
0.976
Cc1ccnc(NS(=O)(=O)c2ccc(N)cc2)n1
1.01
CNCc1ccccc1
1.02
C#C[C@]1(O)CCC2C3CCC4=C(CCC(=O)C4)C3CC[C@@]21C (stereo partly specified)
0.968

Tell us which normalized growth value is on record for CC1(C)CC[C@@]2(C(=O)O)C(C1)C1=CCC3[C@@]4(C)CC[C@H](O)C(C)(C)C4CC[C@@]3(C)[C@]1(C)C[C@@H]2O (stereo partly specified)
1.02

====

normalized growth values, listed per item
- Assay Text: chemical genetic growth profiling, strain panel (AID 1159580);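 further: tested at 20 µM; growth read once vehicle control cultures reached saturation at 30 °C; 1 = growth at the plate median or of vehicle wells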
- Experimental Context: S. cerevisiae deletion strains, growth OD, locus YJL115W, strain asf1, stronger effect = lower value
Among all 5,500 compounds or so, about 2,000 (36%) were called active. Another 18% or so got no clear call; they are omitted. The list shows a part of the results.
Please state the value as a number alone, without comment.

Worked examples, 3 compounds total:
COC(=O)Nc1nc2ccc(Sc3ccccc3)cc2[nH]1
1.01
COc1ccc2c3c([nH]c2c1)C(C)=NCC3
0.994
O=c1oc2cc(O)ccc2s1
1.03

Output measured normalized growth for this item: "CCCOc1ccccc1-c1nc2n[nH]nc2c(=O)[nH]1"
1

For "Clc1ccccc1C(c1ccccc1)(c1ccccc1)n1ccnc1" , write its normalized growth.
0.0739

Annotate the compound "COC(=O)Nc1nc2ccc(C(=O)c3ccccc3)cc2[nH]1" with its measured normalized growth.
0.977

Look up and state reported normalized growth for CC(CC(=O)C(O)C(C)(C)O)C1C(=O)CC2(C)C3=CCC4C(C)(C)C(OC5OCC(O)C(O)C5O)CCC45CC35C(O)CC12C (stereo unspecified)
1.01
